system.tested: natural Fel d1 (cat (Felis domesticus)) (UniProt P30438)
assay.summary: SPR, mAb captured, nFel d1 injected, 25 C
assay.readout: koff

Q: Look at this binder and give its reported koff. H4H2607B (antibody, human IgG4, V domains shown) VH: EVQLVESGGGLVKPGGSLRLSCAASGFTFSDYYMNWIRQAPGKGLEWISYLSSSGSATYYADSVKGRFTISRDNAKNSLYLQMNSLRAEDTAVYYCARDGKYNTVAGDYWGQGTTVTVSS VL: DIQLTQSPSSLSASVGDRVTITCRASQGIRNDLGWYQQKPGKAPKRLIYAASSLQSGVPSRFSGSGSGTEFTLTISSLQPEDFATYYCLQHNSYPYTFGQGTKVEIKR
Ans: 0.00091 s⁻¹
